# tested.target: human serum albumin (HSA) Sudlow sites (Homo sapiens)
# Sequence (P02768 25-609): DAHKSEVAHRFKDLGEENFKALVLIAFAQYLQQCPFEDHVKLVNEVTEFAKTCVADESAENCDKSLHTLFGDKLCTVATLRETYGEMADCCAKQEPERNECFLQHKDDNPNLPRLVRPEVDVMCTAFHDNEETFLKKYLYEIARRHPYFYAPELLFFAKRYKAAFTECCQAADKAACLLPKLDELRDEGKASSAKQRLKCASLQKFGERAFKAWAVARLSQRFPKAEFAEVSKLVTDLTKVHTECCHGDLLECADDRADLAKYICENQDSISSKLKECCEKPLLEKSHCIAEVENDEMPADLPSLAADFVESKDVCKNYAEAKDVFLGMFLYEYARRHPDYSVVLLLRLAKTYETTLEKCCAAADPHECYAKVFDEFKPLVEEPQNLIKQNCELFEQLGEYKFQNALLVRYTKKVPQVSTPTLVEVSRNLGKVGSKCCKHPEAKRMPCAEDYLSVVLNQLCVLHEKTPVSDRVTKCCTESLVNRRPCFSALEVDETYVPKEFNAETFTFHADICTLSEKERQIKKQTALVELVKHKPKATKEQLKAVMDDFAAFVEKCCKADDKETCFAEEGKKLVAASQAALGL
# assay.name: Fluorescence competition with dansylated amino acids
# Type: binding
# condition.set: read-out: Kd for HSA Sudlow's Site I; fluorescence titration
pKd: −log10 of the molar value.
measured.property: pKd

Data point: CN(C)c1cccc2c(S(=O)(=O)N[C@@H](CCCN=C(N)N)C(=O)O)cccc12 [DanR, dansyl-arginine] ; pKd = ~4.60

Measured values drawn from paper PMC7255057 for this set.
